Read-out: Pselectin, SELP (gene 6403)
PROTOCOL TEXT: BSK_4H_Pselectin: BioMAP Diversity Plus: 4H Assay for Pselectin Biomarker Activity (AID 2283026)
RECORDED CONDITIONS: primary human endothelial cells (HUVEC); actives raise or lower the signal
Active and inactive are the calls of the source. The calls were made as follows: active = hit-call score of the fitted dose curve at least 0.9, where 1 is the maximum; inactive = score below 0.9.
MEASURE NAME: AC50

Please review the entries below; each comes with its answer.
COCC(C)OCC(C)OCC(C)O (configuration not stated)    inactive
CCCCCCCCOC(=O)c1cc(O)c(O)c(O)c1    17.8 µM (active)
CCCCCCCCCCCCO    34.2 µM (active)
Oc1ccccc1    inactive
c1ccc(C[n+]2cccc3ccccc32)cc1    inactive
CCCCCCCCN(C)CCCCCCCC    inactive

Below: the item to evaluate.
# query: AC50 of entry Cc1ccc2oc(CN(Cc3ccccc3)C(=O)Nc3c(F)cc(F)cc3F)c(-c3ccc(Cl)cc3)c2c1
inactive
